Can you tell me IC50, Abeta x-40 in mouse cortical neurons for the items I'm about to list?
- SYSTEM: BACE1 in primary mouse cortical neurons (mouse, UniProt P56818 46-501)
- Sequence (P56818 46-501): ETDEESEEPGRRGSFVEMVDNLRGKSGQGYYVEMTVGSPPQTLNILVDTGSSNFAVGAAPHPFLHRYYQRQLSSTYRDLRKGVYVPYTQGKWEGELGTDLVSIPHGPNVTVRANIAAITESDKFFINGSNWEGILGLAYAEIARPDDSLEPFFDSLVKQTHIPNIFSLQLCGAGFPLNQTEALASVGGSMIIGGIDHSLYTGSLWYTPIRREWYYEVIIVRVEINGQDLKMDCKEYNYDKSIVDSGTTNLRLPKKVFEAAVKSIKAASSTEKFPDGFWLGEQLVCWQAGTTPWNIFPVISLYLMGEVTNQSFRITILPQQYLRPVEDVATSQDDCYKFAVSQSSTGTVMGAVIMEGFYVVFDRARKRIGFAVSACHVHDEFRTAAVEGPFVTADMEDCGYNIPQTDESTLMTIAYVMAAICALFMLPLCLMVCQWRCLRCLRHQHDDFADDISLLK
- ASSAY_SUMMARY: cell-based or functional assay
Give bare numbers, in nM.

Please look at the items below and tell me IC50, Abeta x-40 in mouse cortical neurons for each one, in order.
1. 5887 (antibody, V domains shown, anti-BACE1 IgG) VH: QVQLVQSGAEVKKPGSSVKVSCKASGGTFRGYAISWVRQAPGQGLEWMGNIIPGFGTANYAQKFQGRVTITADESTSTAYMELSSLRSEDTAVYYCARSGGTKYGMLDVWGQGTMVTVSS VL: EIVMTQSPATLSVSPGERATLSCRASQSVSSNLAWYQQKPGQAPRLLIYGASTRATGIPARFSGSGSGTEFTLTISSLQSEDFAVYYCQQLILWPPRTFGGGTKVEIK
2. 5902 (antibody, V domains shown) VH: QLQLQESGPGLVKPSETLSLTCTVSGGSISSSSYYWGWIRQPPGKGLEWIGSIYRSGSTWYNPSLKSRVTISVDTSKNQFSLKLSSVTAADTAVYYCARVGHGISYFDLWGRGTLVTVSS VL: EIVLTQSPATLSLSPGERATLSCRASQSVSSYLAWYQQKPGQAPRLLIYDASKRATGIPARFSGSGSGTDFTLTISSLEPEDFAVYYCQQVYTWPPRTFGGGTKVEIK

A:
1.74
1.59

Just for reference, patent US20180057604A1 is where these values come from.
